The entries below are paired with their reported remaining activity at 100 µM.
# Assayed system: NR1/NR2D (Rattus norvegicus, UniProt P35439+Q62645)
# Sequence (Q62645 28-1323, other chains not shown): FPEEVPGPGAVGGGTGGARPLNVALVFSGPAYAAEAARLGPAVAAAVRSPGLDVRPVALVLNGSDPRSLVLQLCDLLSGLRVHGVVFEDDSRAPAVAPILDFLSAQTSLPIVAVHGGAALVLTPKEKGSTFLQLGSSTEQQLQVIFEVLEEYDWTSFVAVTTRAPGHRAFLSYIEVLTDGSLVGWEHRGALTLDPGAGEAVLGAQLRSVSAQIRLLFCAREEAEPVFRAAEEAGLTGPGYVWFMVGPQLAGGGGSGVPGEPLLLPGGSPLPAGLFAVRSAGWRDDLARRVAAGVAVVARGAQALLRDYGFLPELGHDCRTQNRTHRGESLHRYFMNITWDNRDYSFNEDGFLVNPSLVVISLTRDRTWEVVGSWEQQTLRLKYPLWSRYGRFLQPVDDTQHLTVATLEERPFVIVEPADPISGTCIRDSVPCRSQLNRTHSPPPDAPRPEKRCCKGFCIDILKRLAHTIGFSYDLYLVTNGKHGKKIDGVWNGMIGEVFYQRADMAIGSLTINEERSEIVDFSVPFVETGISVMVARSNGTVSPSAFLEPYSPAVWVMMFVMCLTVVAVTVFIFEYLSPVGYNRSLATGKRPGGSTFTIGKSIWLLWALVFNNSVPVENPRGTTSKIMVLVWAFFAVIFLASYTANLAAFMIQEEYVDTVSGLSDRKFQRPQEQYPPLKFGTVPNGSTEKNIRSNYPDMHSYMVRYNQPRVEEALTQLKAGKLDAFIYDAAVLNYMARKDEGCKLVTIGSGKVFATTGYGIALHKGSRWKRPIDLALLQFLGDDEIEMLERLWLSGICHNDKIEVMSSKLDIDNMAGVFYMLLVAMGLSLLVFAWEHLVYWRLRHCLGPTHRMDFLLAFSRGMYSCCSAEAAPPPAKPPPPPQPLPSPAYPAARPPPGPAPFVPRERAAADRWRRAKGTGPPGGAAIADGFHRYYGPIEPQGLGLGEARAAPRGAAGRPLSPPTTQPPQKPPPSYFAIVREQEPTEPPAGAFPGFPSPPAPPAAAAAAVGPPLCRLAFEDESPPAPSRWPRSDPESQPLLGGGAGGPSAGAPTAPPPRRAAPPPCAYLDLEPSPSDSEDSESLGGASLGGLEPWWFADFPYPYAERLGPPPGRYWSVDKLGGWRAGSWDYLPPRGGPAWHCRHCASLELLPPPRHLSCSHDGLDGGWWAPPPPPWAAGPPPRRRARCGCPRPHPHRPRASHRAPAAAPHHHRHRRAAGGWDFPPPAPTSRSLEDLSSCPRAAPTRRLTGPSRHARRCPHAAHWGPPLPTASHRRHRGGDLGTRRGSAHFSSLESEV
# Assay name: Two electrode voltage clamp, Xenopus oocytes expressing recombinant NR1/NR2D
# Type: cell-based
# Condition notes: at 100 μM; read-out: 2D percent effect at the maximum tested concentration
Numbers only here, please. The scale is %.

Cn1c(=O)oc2ccc(C(=O)Nc3cccc4ccccc34)cc21    75
O=C(Nc1cccc2ccccc12)c1ccc(OC(=O)C2CC2)cc1    81

Moving on to another compound below.
Noted for CCN(CC)C(=O)Oc1ccccc1C(=O)Nc1cccc2ccccc12 : its remaining activity at 100 µM reads 91

Data provenance: patent US20110319416A1
